Tested on: HaCat
assay-name: Cytotoxic Profiling of Annotated Libraries Using Quantitative High-Throughput Screening (AID 1296008); note: nearly all actives have a fitted effect of over 60% in size
experimental-setup: Five cell lines viability, CellTiter-Glo ATP luminescence, 48-72 h
Results filed as inconclusive are left out. Active and inactive are the calls of the source. Calls come from the whole dose curve; as a rule, active = well fitted inhibition curve with a large enough effect; inconclusive = small, poorly fitted or top-dose-only effect; inactive = flat fitted curve, though single readings scatter.
Please state which outcome applies, choosing from 1 (active), 0 (inactive)

query: What classification did CC(C)c1cc2c(N3CCN(C4=NCC(C)(C)S4)CC3)ncnc2s1 end up with in this test?
result: 0

query: What classification did C=C1CC[C@@H](O)[C@]2(C)CC[C@H]3C(=C)C(=O)O[C@@H]3[C@@H]12 end up with in this test?
result: 0

query: What classification did CC(=O)C=C=C1C(C)(C)CC(O)CC1(C)O[C@@H]1O[C@H](CO[C@H]2OC[C@](O)(CO)[C@H]2O)[C@@H](O)[C@H](O)[C@H]1O (some centres not stated) end up with in this test?
result: 0

query: What classification did COc1cc(O)c2c(c1)C1OC1C[C@H](O)[C@H](O)C(=O)/C=C\C[C@H](C)OC2=O (some centres not stated) end up with in this test?
result: 1

query: What classification did COc1cc(F)c(C(C)C)cc1-c1ccc(C(F)(F)F)cc1CN1C(=O)OC(c2cc(C(F)(F)F)cc(C(F)(F)F)c2)C1C (configuration not stated) end up with in this test?
result: 0

query: What classification did CC(C)n1cnc2c(-c3cnc(N)nc3)nc(N3CCOCC3)nc21 end up with in this test?
result: 1

query: What classification did COc1cccc(-c2cn(-c3ccc(CCN4CCC(O)CC4)cc3)c3ncnc(N)c23)c1 end up with in this test?
result: 1

query: What classification did CC(C)[C@@H](c1ccc(C(F)(F)F)cc1CN(Cc1cc(C(F)(F)F)cc(C(F)(F)F)c1)c1nnn(C)n1)N1CCC(C(=O)O)CC1 end up with in this test?
result: 0

query: What classification did C=C1C(=O)OC2/C=C(\CO)CC/C=C(\C=O)C(O)C(OC(=O)C(C)CC)C12 (configuration not stated) end up with in this test?
result: 0

query: What classification did Cc1cc(CS(=O)(=O)c2ccccc2)cc(OCc2ccc(CN3CCCC3CO)cc2)c1 (configuration not stated) end up with in this test?
result: 0

query: What classification did Cc1ccc(NC(=O)c2ccc(CN3CCNCC3)cc2)cc1Nc1nccc(-c2cccnc2)n1 end up with in this test?
result: 0

query: What classification did C/C=C\NC(=O)C1NC(=O)C(CC(N)=O)NC(=O)C(NC(=O)C(=O)C(C)CC)Cc2ccc(O)c(c2)-c2cccc3c2NC(=O)C3(O)C1O (configuration not stated) end up with in this test?
result: 0

* * *

test-target: Catechol O-methyltransferase (Homo sapiens)
assay-name: Confirmatory Screen for Target Class Profiling of Small Molecule Inhibitors of Methyltransferases (AID 1745852)
experimental-setup: MTase-Glo luminescence, SAH detection, recombinant enzyme; measured here: COMT max response; stronger effect = lower value
endpoint: activity (%)
Give a bare numeral; the unit % is implied.

query: Respond only with activity recorded for COc1cc2ncnc(Nc3cccc(I)c3)c2cc1OC
result: -55.8

query: Respond only with activity recorded for Cc1ccc(C)c(-c2cc(C(F)(F)F)nn2-c2ccc(S(N)(=O)=O)cc2)c1
result: -7.64

query: Respond only with activity recorded for Cc1cn(CCN2CCN(c3ccccc3-c3cc(C#N)cc(C(=O)NCCCN4CCCC4)c3)CC2)c2ccccc12
result: 3.99

query: Respond only with activity recorded for Fc1ccc2c(CCNCc3cccc(OCC(F)(F)C(F)F)c3)c[nH]c2c1
result: -0.052

query: Respond only with activity recorded for N#CSc1cc(SC#N)c(N)nc1N
result: -83.2

query: Respond only with activity recorded for CCCCCCCOc1cc2c(cc1/C(C)=C/c1ccc(C(=O)O)cc1)C(C)(C)CCS2(=O)=O
result: -11.5

query: Respond only with activity recorded for Cc1cc(NC(=O)NCCN2CCC(O)(Cc3ccccc3)CC2)c2ccccc2n1
result: -2.12

query: Respond only with activity recorded for COc1cc2c(Nc3cc(F)c(Cl)c(Cl)c3)ncnc2cc1OCC1CCCN(C)CCC1
result: -15.2

query: Respond only with activity recorded for CC(C)C[C@H](C(=O)O)c1cc(-c2ccc(C(F)(F)F)cc2)cc(-c2ccc(C(F)(F)F)cc2)c1
result: -6.76

query: Respond only with activity recorded for CC(C)c1cc2c(N3CCN(C4=NCC(C)(C)S4)CC3)ncnc2s1
result: -1.24

query: Respond only with activity recorded for O=C1Cc2c([nH]c3ccc(Br)cc23)-c2ncccc2N1
result: -8.4

query: Respond only with activity recorded for CCN(CC)CCCCCCNc1cc(OC)cc2c(C)ccnc12
result: -3.27

query: Respond only with activity recorded for C=C1C(=O)OC2/C=C(\C)CC/C=C(\C=O)C(OC)C(OC(=O)C(C)CC)C12 (stereo not given)
result: -70.5

query: Respond only with activity recorded for C[C@]12CC[C@@H]3c4ccc(O)c(O)c4CC[C@H]3[C@@H]1CCC2=O
result: -61.7

query: Respond only with activity recorded for CN(C)c1ccc(NC(=O)NS(=O)(=O)c2ccc(Cl)cc2)cc1
result: -53.7

query: Respond only with activity recorded for CCCc1cc2c(N3CCN(C4=NCC(C)(C)S4)CC3)ncnc2s1
result: -3.43

query: Respond only with activity recorded for O=C(Nc1ccc(C(F)(F)F)cn1)N1CCN(c2ncccc2C(F)(F)F)CC1
result: -1.28

query: Respond only with activity recorded for C=C1C(=O)OC2C(OC(=O)C=C(C)C)C(C)=C3C(=O)C=C(C)C3C(O)C12 (stereo not given)
result: -65.9

query: Respond only with activity recorded for NC(N)=NC(=O)c1cnn(-c2cccc3ncccc23)c1C1CC1
result: -9.86

query: Respond only with activity recorded for COc1ccc(NC(=O)c2ccc(-c3ccc(C(=N)N)cc3C)cc2)cc1N1CCN(C)CC1
result: -5.44
